This collection of values is drawn from paper PMC12416549.

Listing of recorded apparent Kd (screen) by entry.
System: T1, TNFR1 (Homo sapiens, UniProt P19438)
T1 chain: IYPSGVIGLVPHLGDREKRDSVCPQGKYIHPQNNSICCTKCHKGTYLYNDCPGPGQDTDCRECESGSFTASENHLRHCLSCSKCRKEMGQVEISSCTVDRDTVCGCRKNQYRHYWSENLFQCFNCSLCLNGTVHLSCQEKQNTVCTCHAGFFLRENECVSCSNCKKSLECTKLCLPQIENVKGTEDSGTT
Experimental protocol: yeast display SC50
Form entry: value (nM) — number only.

Q: Report apparent Kd (screen) for V102A (designed binder) SMEEEVEKAAKEYEKKKKEAIEKHLEKLKAKDKEAAERFLKELEEAAKEYAKDEAKTMSEEEAKRRAKKYKEKVLLSELSEEEQKEIKEAEEKLVRTILKYAEEAAK please.
Ans: 0.49

Q: Could you do the same for A36F (designed binder) SMEEEVEKAAKEYEKKKKEAIEKHLEKLKAKDKEAFERFLKELEEAAKEYAKDEAKTMSEEEAKRRAKKYKEKVLLSELSEEEQKEIKEAEEKLVRTILKYVEEAAK , please?
Ans: 1.27
